- Test system: HeLa (cervical epithelioid carcinoma)
- MEASUREMENT PROTOCOL: MTT antiproliferation assay, HeLa
- Type: cell-based, human
- DETAILS: Homo sapiens, HeLa, read-out: IC50 (µM) Hela, MTT assay, HeLa cells
MEASURED QUANTITY: IC50 (µM)
Enter your answer as a number in µM; do not include the unit.

Worked set:
GET /value?item= NS(=O)(=O)c1cccc(Nc2nccc(-n3c(C4CC4)nc4ccccc43)n2)c1 &field=IC50 returns 9.71

GET /value?item= Cc1cnc(Nc2cccc(S(N)(=O)=O)c2)nc1-n1cnc2ccccc21 &field=IC50 returns 49.8

GET /value?item= Cc1cnc(Nc2cccc(S(N)(=O)=O)c2)nc1-n1c(C)nc2ccccc21 &field=IC50 returns 12.6

GET /value?item= Cc1nc2ccccc2n1-c1nc(Nc2cccc(S(N)(=O)=O)c2)ncc1F &field=IC50 returns 23.6

GET /value?item= NS(=O)(=O)c1cccc(Nc2ncc(F)c(-n3cnc4ccccc43)n2)c1 &field=IC50 returns 17

***
GET /value?item= NS(=O)(=O)c1cccc(Nc2ncc(C(F)(F)F)c(-n3c(C4CC4)nc4ccccc43)n2)c1 &field=IC50 returns 30.3

GET /value?item= NS(=O)(=O)c1cccc(Nc2ncc(F)c(-n3c(C(F)(F)F)nc4ccccc43)n2)c1 &field=IC50 returns 19.4

GET /value?item= CC(C)c1nc2ccccc2n1-c1ccnc(Nc2cccc(S(N)(=O)=O)c2)n1 &field=IC50 returns 6.39

GET /value?item= NS(=O)(=O)c1cccc(Nc2ncc(F)c(-n3c(C4CC4)nc4ccccc43)n2)c1 &field=IC50 returns 26.5

GET /value?item= CC(C)c1nc2ccccc2n1-c1nc(Nc2cccc(S(N)(=O)=O)c2)ncc1F &field=IC50 returns 36.4
